system: RXF 393 renal; experiment: NCI tumour cell line growth inhibition, 48 h
The reader will find reported TGI values listed item by item below.
Write the number in µM without appending the unit.

The examples below pair each entry with its known result.
CC1=Nc2ccccc2SC(c2c(Cl)cccc2Cl)C1 (configuration not stated)	2.69
COc1cccc2c1C(=O)c1c(O)c3c(c(O)c1C2=O)C[C@@](O)(C(=O)COC(=O)c1ccccc1)C[C@@H]3OC1CC(N)C(O)C(C)O1 (some centres not stated)	0.859
C=C(CN1CCc2c([nH]c3ccccc23)C1)c1ccc(C(=O)Nc2ccccc2N)cc1	12.8
CCCc1nc(Cl)nc(Cl)c1Cl	0.798
COc1ccc2c(c1)C(=O)/C(=C/c1cccc(OCC(=O)Nc3nc(C)c(C)s3)c1)O2	0.0418

Now look at this one.
Lookup: Bench note: what TGI did `CC(=O)c1ccc2c(c1)N(CCCN1CCN(CCO)CC1)c1ccccc1S2` show?
Found: 5.95

----------
test system: SF-268 CNS; assay: NCI tumour cell line growth inhibition, 48 h
The reader will find reported TGI values listed item by item below.

The examples below pair each entry with its known result.
CN(C)CCCOc1cccc(NC2=C(Cl)C(=O)C(Nc3cccc(OCCCN(C)C)c3)=C(Cl)C2=O)c1	3.47 µM
c1ccc(-c2nc3n(c2-c2ccc4c(c2)OCO4)CCC3)nc1	> 25 µM
Cc1cc(CCl)c(C)cc1CCl	6.08 µM
CO/N=C\c1ccc2c(c1)Sc1ccccc1O2	> 100 µM
C=C1C[C@@H](O)[C@@H](Br)C(C)(C)[C@@]12C=CC(=O)CC2	> 100 µM

Lookup: Bench note: what TGI did `O=C1CCC[C@H]2O[C@@H](COC(=O)c3ccccc3)C[C@H]2O1` show?
Found: > 100 µM

----------
system: OVCAR-4 ovarian; assay: NCI tumour cell line growth inhibition, 48 h
The reader will find reported TGI values listed item by item below.
Write the number in µM without appending the unit.

CC(=O)c1ccc2c(c1)N(CCCN1CCN(CCO)CC1)c1ccccc1S2	14.7

Now look at this one.
Lookup: Bench note: what TGI did `O=C(O)c1nc2ccc(C(F)(F)F)cc2nc1Nc1ccc(Cl)c(Cl)c1` show?
Found: 76.1

----------
test system: HL-60(TB) leukemia; experiment: NCI tumour cell line growth inhibition, 48 h
The reader will find reported TGI values listed item by item below.
Write the number in µM without appending the unit.

The examples below pair each entry with its known result.
COc1ccc(C2=NC(=O)NC2c2ccc(OC)cc2)cc1 (stereo not given)	15.6
COC1(C2c3ccccc3CCN2C(=O)OC(C)(C)C)C(=O)C(c2ccccc2)=C1N(C)C (stereo not given)	79.8

Lookup: Bench note: what TGI did CC(NC(=O)Cc1ccc(C(F)(F)P(=O)(OCc2ccc([N+](=O)[O-])o2)N(C)CCCCCl)cc1)c1ccc(OCC2CCCCC2)c(C(N)=O)c1 (stereo not given) show?
Found: 4.72

----------
system: A498 renal; assay: NCI tumour cell line growth inhibition, 48 h
RECORDED_ENDPOINT: TGI

The examples below pair each entry with its known result.
Cn1c(=Nc2ccc(Cl)cc2)sc2ccccc21	> 100 µM
CC(=O)OC(C(=O)[O][Sn]([CH3])([CH3])[CH3])c1ccccc1 (stereo not drawn)	> 100 µM

Lookup: Bench note: what TGI did CCC(=O)N/S(=N/S(=O)(=O)c1ccccc1)C(Cl)(Cl)Cl (stereo not drawn) show?
Found: > 100 µM

----------
The reader will find reported TGI values listed item by item below.
tested on: SF-539 CNS; test: NCI tumour cell line growth inhibition, 48 h
Write the number in µM without appending the unit.

The examples below pair each entry with its known result.
CC(C)(C)[Si](C)(C)OC1[C@@H](CNC(N)=O)O[C@@H](n2cnc3c(NC(=O)Nc4ccccc4)ncnc32)[C@H]1O[Si](C)(C)C(C)(C)C (stereo partly specified)	13.6
Clc1ccc2c(NCCCCN3OC3c3ccccc3)ccnc2c1 (stereo unspecified)	3.63
CCCc1nc(Cl)nc(Cl)c1Cl	2.94
CC1=Nc2ccccc2SC(c2c(Cl)cccc2Cl)C1 (stereo unspecified)	2.72
CCN1[C@@H](C(=O)NC23CCC(C(=O)O)(CC2)CC3)[C@H](c2cccc(Cl)c2F)[C@]2(C(=O)Nc3cc(Cl)ccc32)C12CCCCC2	10.6

Now look at this one.
Lookup: Bench note: what TGI did `CCOC(=O)c1ccc(NC(=O)NC2=NCCS2)cc1` show?
Found: 2.27

----------
tested on: OVCAR-5 ovarian; experiment: NCI tumour cell line growth inhibition, 48 h; in the data active means GI50 below about 0.43 µM; inactive means the rest
Outcomes you can answer with include only these: 1 (yes) (active), 0 (no) (inactive)

Please review the following examples before continuing.
COc1cccc2c1C(=O)c1c(O)c3c(c(O)c1C2=O)C[C@@](O)(C(=O)COC(=O)c1ccccc1)C[C@@H]3OC1CC(N)C(O)C(C)O1 (stereo partly drawn)	1 (yes)
c1ccc(-c2nc3n(c2-c2ccc4c(c2)OCO4)CCC3)nc1	0 (no)
COc1cc([C@@H]2c3cc4c(cc3[C@H](OC(C)=O)[C@H]3COC(=O)[C@@H]23)OCO4)cc(OC)c1OC	0 (no)
O=C1c2cccnc2-c2nc(-c3cccnc3)cc3c2c1nc1ccccc13	0 (no)
CC(C)(C)[Si](C)(C)OC1[C@@H](CNC(N)=O)O[C@@H](n2cnc3c(NC(=O)Nc4ccccc4)ncnc32)[C@H]1O[Si](C)(C)C(C)(C)C (stereo partly drawn)	0 (no)
COc1cc(OCc2cccc(-c3ccccc3)c2C)cc(OC)c1CN1CCCCC1C(=O)NCCOCCOCCN (stereo not drawn)	0 (no)

Lookup: # lookup: test call for `C=C(CN1CCc2c([nH]c3ccccc23)C1)c1ccc(C(=O)Nc2ccccc2N)cc1`
Found: 0 (no)

Lookup: # lookup: test call for `O=C(c1ccc2ccccc2c1)c1nc2cc(F)ccc2[n+]([O-])c1C(F)(F)F`
Found: 0 (no)

Lookup: # lookup: test call for `COc1ccc(-c2nc(-c3nc4cc(Cl)c(F)cc4[nH]3)c3ccccn23)cc1`
Found: 0 (no)

Lookup: # lookup: test call for `CCOC(=O)c1ccc(NC(=O)NC2=NCCS2)cc1`
Found: 0 (no)

Lookup: # lookup: test call for `CC(=O)/C=C/c1ccc(Nc2c3ccccc3nc3occ(Cl)c23)cc1`
Found: 0 (no)

Lookup: # lookup: test call for `CCCN(CCC)c1ccc(C=O)c(Cl)c1`
Found: 0 (no)

----------
The reader will find reported TGI values listed item by item below.
test system: MCF7 breast; assay: NCI tumour cell line growth inhibition, 48 h

Lookup: Bench note: what TGI did `CN(Cc1ccc(F)cc1)c1ccc(CO)c(Cl)c1` show?
Found: 21.5 µM

----------
tested on: UO-31 renal; assay: NCI tumour cell line growth inhibition, 48 h
The reader will find reported TGI values listed item by item below.

The examples below pair each entry with its known result.
O=C(c1ccccc1)N1C(=O)N(c2ccccc2)C(=Nc2ccccc2)C1=Nc1ccccc1	> 100 µM
CCC1=CCN(c2cc(C)ccn2)OC1c1ccccc1 (stereo not drawn)	> 100 µM
COc1ccc2oc(S(=O)(=O)N3CC(CCl)c4ccc(N)cc43)cc2c1 (stereo not drawn)	> 100 µM
CCn1cc(/C=C2\Oc3cc(OCC#N)ccc3C2=O)c2cc(OC)ccc21	> 100 µM
CC(=O)/C=C/c1ccc(Nc2c3ccccc3nc3occ(Cl)c23)cc1	> 100 µM

Lookup: Bench note: what TGI did `O=c1c2c(-c3ccccc3)c3ccccc3nc2cnn1-c1ccccc1` show?
Found: > 100 µM

Lookup: Bench note: what TGI did `Cc1cc(CCl)c(C)cc1CCl` show?
Found: 3.71 µM

Lookup: Bench note: what TGI did `O=c1[nH]nc(-c2ccccc2)n1/N=C/c1ccccc1O` show?
Found: > 100 µM

Lookup: Bench note: what TGI did `O=C(c1cccs1)c1nccc2c1cnc1ccccc12` show?
Found: > 100 µM

Lookup: Bench note: what TGI did CC(=O)C(C(=O)c1ccc(C)cc1)[C@H]1OC(C)(C)O[C@H]1[C@H]1COC(C)(C)O1 (stereo partly drawn) show?
Found: 14 µM

Lookup: Bench note: what TGI did `CN(Cc1ccc(F)cc1)c1ccc(CO)c(Cl)c1` show?
Found: > 65.1 µM

Lookup: Bench note: what TGI did `Cc1ccc(S(=O)(=O)c2nc(-c3ccccc3)oc2S(C)(=O)=O)cc1` show?
Found: 2.81 µM

Lookup: Bench note: what TGI did CC(C)=NOC(=O)CNC(=O)C(Cc1ccccc1)NC(=O)C(C)NC(=O)OC(C)(C)C (stereo not drawn) show?
Found: > 100 µM

Lookup: Bench note: what TGI did `COC(=O)c1cc(=O)nc2cc3cccccc3n12` show?
Found: > 100 µM

Lookup: Bench note: what TGI did `CCOC(=O)c1ccc(NC(=O)NC2=NCCS2)cc1` show?
Found: > 100 µM

Lookup: Bench note: what TGI did `Cc1ccc(Cl)cc1N=NC(=O)NNc1cc(Cl)ccc1C` show?
Found: 35.7 µM
